- Test system: hepatocellular carcinoma (HepG2) cells
- METHOD: Antiproliferative MTT assay, HepG2
- Format: cell-based, human
- TEST CONDITIONS: Homo sapiens, HepG2, 72 h, 72 h incubation, MTT; mean ± SD
MEASURE NAME: IC50 (µM)

// below: answered molecules
MOLECULE: O[C@H](Cn1cc(Cn2ccc3c(Cl)ncnc32)nn1)c1ccc(Cl)cc1 [Compound (S)-43b]
IC50, µM: 21

MOLECULE: OC(Cn1cc(Cn2cnc3c(Cl)nccc32)nn1)c1ccc(F)cc1 (stereo not shown) [Compound 47b]
IC50, µM: 55

MOLECULE: OCC(c1ccc(F)cc1)n1cc(Cn2ccc3c(Cl)ncnc32)nn1 (stereo not shown) [Compound 42a]
IC50, µM: 47

MOLECULE: O[C@@H](Cn1cc(Cn2ccc3c(Cl)ncnc32)nn1)c1ccc(C(F)(F)F)cc1 [Compound (R)-45b]
IC50, µM: 38

MOLECULE: OCC(c1ccc(F)cc1)n1cc(Cn2cnc3ccccc32)nn1 (stereo not shown) [Compound 32a]
IC50, µM: 74

MOLECULE: OCC(c1ccc(Cl)cc1)n1cc(Cn2cnc3ccccc32)nn1 (stereo not shown) [Compound 33a]
IC50, µM: 50

MOLECULE: O[C@@H](Cn1cc(Cn2ccc3c(Cl)ncnc32)nn1)c1ccccc1 [Compound (R)-41b]
IC50, µM: 52

[I] OC(Cn1cc(Cn2cnc3c(Cl)ncnc32)nn1)c1ccc(F)cc1 (stereo not shown) [Compound 37b]
[II] O[C@H](Cn1cc(Cn2cnc3c(Cl)ncnc32)nn1)c1ccc(C(F)(F)F)cc1 [Compound (S)-40b]
Task for the reader: decide whether I or II has the larger IC50. Selection: enter the item's label.
I

* * *

- Tested on: normal skin fibroblasts (HFF-1)
- METHOD: Cytotoxicity MTT assay, normal skin fibroblasts
- Assay type: cell-based, human
- TEST CONDITIONS: 72 h incubation, mean ± SD
MEASURE NAME: IC50 (nM)
Dear colleague, please return just the value in nM, with no unit written.

Quick one: IC50 of O=c1[nH]cc(F)c(=O)[nH]1 [Compound 5-FU, 5-Fluorouracil, reference compound] ?
900

* * *

- Test system: colorectal carcinoma (HT-29) cells
- METHOD: Antiproliferative MTT assay, HT-29
- Type: cell-based, human
- TEST CONDITIONS: Homo sapiens, HT-29, 72 h, 72 h incubation, MTT; mean ± SD
MEASURE NAME: IC50 (µM)

// below: answered molecules
MOLECULE: O[C@H](Cn1cc(Cn2ccc3c(Cl)ncnc32)nn1)c1ccc(F)cc1 [Compound (S)-42b]
IC50 [µM]: 33
--
MOLECULE: OCC(c1ccc(Cl)cc1)n1cc(Cn2ccc3ccccc32)nn1 (stereo not drawn) [Compound 28a]
IC50 [µM]: 31
--
MOLECULE: OC(Cn1cc(Cn2ccc3c(Cl)ncnc32)nn1)c1ccc(Br)cc1 (stereo not drawn) [Compound 44b]
IC50 [µM]: 30

[A] OC(Cn1cc(Cn2cnc3c(Cl)nccc32)nn1)c1ccc(F)cc1 (stereo not drawn) [Compound 47b]
[B] OCC(c1ccc(C(F)(F)F)cc1)n1cc(Cn2ccc3c(Cl)ncnc32)nn1 (stereo not drawn) [Compound 45a]
Task for the reader: decide whether A or B has the larger IC50. Selection: enter the item's label.
A

Each recorded value in this set is attributed to paper PMC11940194.
